Just for reference, PubChem BioAssay (NCATS) is where these values come from.

- Protocol text: qHTS drug screen for cell cycle checkpoint inhibitors in PARPi-resistant BRCA-mutant ovarian cancer cell lines. (AID 1963452)
- Assay conditions: PEO1/OlaR viability, CellTiter-Glo luminescence, 96 h; measured here: PEO4 Z-AUC; stronger effect = lower value
Could you please classify the records by Z-AUC using these ranges: Low: < -0.4; Mid: ≥ -0.4 and < 0.7; High: ≥ 0.7

Task item: Category of CNC(=O)c1cc(COc2nnc(Nc3ccc(Cl)cc3)c3ccoc23)ccn1 :
Reply: Mid

Task item: State the band of CCCCC[C@H](O)C=C[C@H]1[C@H](O)CC(=O)[C@H]1CC=CCCCC(=O)O
Reply: High

Task item: Which class does CC(C)[C@H](O)C(=O)N[C@@H](C)C(=O)N[C@@H]1C(=O)N(C)CCc2ccccc21 fall in?
Reply: Mid

Task item: Which class is correct for the following compound? Cc1ccc(S(=O)(=O)Nc2nc3ccccc3nc2Nc2ccc3nsnc3c2)cc1
Reply: Low

Task item: Please indicate the class for CN(C)CC[C@H](CSc1ccccc1)Nc1ccc(S(=O)(=O)NC(=O)c2ccc(N3CCN(Cc4ccccc4-c4ccc(Cl)cc4)CC3)cc2)cc1[N+](=O)[O-] based on its Z-AUC.
Reply: Low

Task item: Class (by measured Z-AUC) for CCCCCCCCCCCCCC(=O)N[C@H](CO)[C@H](O)c1ccc([N+](=O)[O-])cc1
Reply: High

Task item: The entry to classify is Cc1ccccc1C(C(=O)NC1CCCCC1)N(C(=O)CNc1ccc(C#N)cc1)c1cccc(F)c1 (stereo not drawn) ; which class holds it?
Reply: Mid

Task item: Given CN1N=C(N)c2cn([C@@H]3O[C@H](COP(=O)(O)O)[C@@H](O)[C@@H]3O)c3ncnc1c23 , name the class its Z-AUC places it in.
Reply: Low

Task item: Lab log: CCC[C@H](N[C@@H](C)C(=O)N1[C@@H]2CCCC[C@H]2C[C@H]1C(=O)O)C(=O)OCC — assign Z-AUC category
Reply: Mid

Task item: Which bin, given its Z-AUC, does CNC(=O)[C@H](Cc1ccccc1)NC(=O)[C@H](CC(C)C)[C@H](CSc1cccs1)C(=O)NO occupy?
Reply: Mid

Task item: Where would Cc1ccc(NC(=O)c2ccc(CN3CCN(C)CC3)cc2)cc1Nc1nc(-c2cccnc2)cs1 land among the classes by reported Z-AUC?
Reply: Low

Task item: Form: Item = CO[C@@H]1C(N(C)C(=O)c2ccccc2)C[C@H]2O[C@]1(C)n1c3ccccc3c3c4c(c5c6ccccc6n2c5c31)C(=O)NC4=O (stereo partly drawn) ; Class = ?
Reply: Low

Task item: // bin(item) where item = CC(C)(F)C[C@H](N[C@@H](c1ccc(-c2ccc(S(C)(=O)=O)cc2)cc1)C(F)(F)F)C(=O)NC1(C#N)CC1
Reply: Mid

Task item: Sort Cc1cccc(-c2[nH]c(C(C)(C)C)nc2-c2ccc3c(c2)OCO3)n1 into one of the categories.
Reply: Mid

Task item: Class for CC(C)C[C@H](NC(=O)c1cc2ccccc2s1)C(=O)N1CCN(C(=O)[C@H](CO)NS(=O)(=O)c2ccc(Cl)cc2Cl)CC1 ?
Reply: Low

Task item: Quick check: band for COc1nccc(-c2c(-c3ccc(F)cc3)ncn2C2CCNCC2)n1
Reply: High

Task item: Which of the defined bands does the recorded Z-AUC of Cc1ccc2c(c1)C(=O)[C@]1(O)CCN(c3ccccc3)C1=N2 sit within?
Reply: High
